Data origin: the supplement of paper PMC10567573

Assay: protein stability index of a GFP-peptide fusion (GPS, HEK-293T) (PSI 1-6); higher = more stable;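 further: 24-mer peptide tiles fused after GFP, lentivirally expressed, FACS-sorted into six equal bins by GFP/DsRed ratio, decoded by Illumina sequencing, PSI is the read-weighted mean bin number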
Conditions: treatment: MLN4924 1 uM, 8 h; c terminus: a fixed tail appended
protein stability index by entry:
Lab note: jot down the number only; don't add units.

Req: Quick check: protein stability index of FKDKLEETKGQINNSIKDLTDGHF [SERPINB5] ?
Resp: 4.5

Req: Can you check AGEGAEALARNLLVDGETGESFPA [NFE2L1] next?
Resp: 5.41

Req: Can you check TWDGRPLTMAATFDDCLYALCVVD [GFOD1] next?
Resp: 2.35

Req: Can you check EVANKDLTERKYKGDSTIRELKAK [SASS6] next?
Resp: 3.27

Req: Can you check DEQLNEFHCLWDDSFPEGPERLHA [HDAC6] next?
Resp: 4.46

Req: Can you check RLAQGNPQQGFFSSFFTCNQKCQL [ATP23] next?
Resp: 2.53

Req: Can you check NTLEGKKPGNNEGSGAPSPLSKSS [SNAP91] next?
Resp: 5.35
